# Tested on: PC-3 prostate
# PROCEDURE SUMMARY: NCI-60 one-dose screen, 48 h
# REPORTED CONDITIONS: 10 µM unless noted
About 83,000 compounds went through this panel and 20% of them were active in at least one assay; those are over-represented in the sample as a whole. Active and inactive are the calls of the source. The calls were made as follows: active = growth percent below 10; inactive = the rest.
Just give me one of these, please: active, inactive

## Task Entry N#CC1=C(N)Oc2c(sc3c(F)cccc23)C1c1ccc(Cl)cc1 (stereo unspecified) : call = ?
## Result active

## Task Entry Cc1ccc(N(CC(=O)Nc2ccc(S(=O)(=O)N3CCC(N4CCCC4)CC3)cc2)S(=O)(=O)c2ccc(Cl)cc2)cc1 : call = ?
## Result inactive

## Task Entry COc1ccc(C2C(C#N)=C(N)Oc3c2sc2c(F)cccc32)cc1 (stereo unspecified) : call = ?
## Result inactive

## Task Entry C[C@@H]1CCCCCCCCC[C@H](O)C(=O)C[C@@H](SC[C@@H](O)C(=O)O)C(=O)O1 : call = ?
## Result inactive

## Task Entry COc1ccc(-c2nc3ccccn3c2-c2nc3ccc(Cl)cc3[nH]2)cc1 : call = ?
## Result inactive

## Task Entry Oc1cccc2ccc(N/N=C/c3cc(CN4CCCCC4)c(O)c4ncccc34)nc12 : call = ?
## Result active

## Task Entry [B-][N+](CC)(CC)c1ccccc1 : call = ?
## Result inactive

## Task Entry Brc1ccc2[nH]cc(-c3nc(-c4c[nH]c5ncccc45)cs3)c2c1 : call = ?
## Result inactive

## Task Entry C=C1C(=O)O[C@H]2[C@H]1CC/C(COC(=O)NCCc1c[nH]c3ccccc13)=C\CC[C@@]1(C)O[C@@H]21 : call = ?
## Result inactive

## Task Entry Cn1cnc2c1c(=O)n(CCC(=O)Nc1ccc(F)cc1)c(=O)n2C : call = ?
## Result inactive

## Task Entry CC/C(=N/NC(N)=O)c1ccccc1 : call = ?
## Result inactive

## Task Entry CCCCC/C(=C\c1ccccc1)C1OC(C)C(C)O1 (stereo unspecified) : call = ?
## Result inactive

## Task Entry CC/C=C\C[C@H]1CC=C2C(=O)C=C[C@@H]2CC=CCCCC(=O)O[C@@H](CCCCC)CC=C2C(=O)C=C[C@@H]2CC=CCCCC(=O)O[C@@H](CCCCC)CC=C2C(=O)C=C[C@@H]2CC=CCCCC(=O)O[C@@H](CCCCC)CC=C2C(=O)C=C[C@@H]2CC=CCCCC(=O)O1 : call = ?
## Result inactive

## Task Entry CC(C)/C=C/CC[C@](C)(O)[C@H]1CC[C@]2(C)[C@@H]1CC[C@@H]1[C@@]3(C)C/C(=C/c4cccc(C(F)(F)F)c4)C(=O)C(C)(C)[C@@H]3CC[C@]12C : call = ?
## Result inactive

## Task Entry CC1(C)CC[C@]2(C(=O)Nc3ccccn3)CC[C@]3(C)C(=CC[C@@H]4[C@@]5(C)C/C(=C/c6ccncc6)C(=O)C(C)(C)[C@@H]5CC[C@]43C)[C@@H]2C1 : call = ?
## Result inactive

## Task Entry Cn1cc(-c2csc(-c3cn(CCN)c4ccccc34)n2)c2cccnc21 : call = ?
## Result inactive

----------
# System: NCI-H522 lung
# PROCEDURE SUMMARY: NCI-60 one-dose screen, 48 h
# REPORTED CONDITIONS: 10 µM unless noted
Compounds without any hit were thinned out: in the full panel of roughly 83,000, 20% have a hit. Calls of active or inactive are those of the source. Rule for the calls: active = growth percent below 10; inactive = the rest.
Just give me one of these, please: TRUE (active), FALSE (inactive)

## Task Entry Cc1nnc2nc(N)[nH]n2c1=O : call = ?
## Result FALSE

## Task Entry COC(=O)[C@]12CC[C@@H](C)[C@H](C)[C@@H]1C1=CC[C@@H]3[C@@]4(C)C=C(O)C(=O)C(C)=C4CC[C@@]3(C)[C@]1(C)CC2 : call = ?
## Result TRUE

## Task Entry N#C/C(=C\c1ccc(-c2ccc(Cl)cc2)o1)c1nc(-c2ccco2)cs1 : call = ?
## Result FALSE

## Task Entry COC(=O)[C@]12CC[C@@H](C)[C@H](C)[C@@H]1C1=CC[C@@H]3[C@@]4(C)CC(=O)[C@H](OC(=O)c5ccco5)[C@@]5(C)COC(=C45)C[C@@]3(C)[C@]1(C)CC2 : call = ?
## Result FALSE

----------
# System: IGROV1 ovarian
# PROCEDURE SUMMARY: NCI-60 one-dose screen, 48 h
# REPORTED CONDITIONS: 10 µM unless noted
Compounds without any hit were thinned out: in the full panel of roughly 83,000, 20% have a hit. Active and inactive are the calls of the source. How the source made its calls: active means growth percent below 10; inactive means the rest.
Just give me one of these, please: active, inactive

## Task Entry O=C1c2ccccc2C(=Cc2ccccc2)c2ccccc21 : call = ?
## Result inactive

## Task Entry CCCCC[C@H]1C/C=C2/C(=O)C(Cl)=C[C@@H]2C/C=C\CCCC(=O)O[C@@H](CCCCC)C/C=C2/C(=O)C(Cl)=C[C@@H]2C/C=C\CCCC(=O)O1 : call = ?
## Result active

## Task Entry C=C1CC[C@@H](C(=O)OC)Cc2nc(C)ccc21 : call = ?
## Result inactive

## Task Entry C=C(C)[C@@H]1CC[C@]2(C)[C@H](CC=C3[C@@H]4CC(C)(C)CC[C@]4(C=O)CC[C@]32C)[C@@]1(C)CCCN : call = ?
## Result inactive

----------
# System: A498 renal
# PROCEDURE SUMMARY: NCI-60 one-dose screen, 48 h (100 = growth as untreated, 0 = no growth, -100 = all killed)
# REPORTED CONDITIONS: 10 µM unless noted
The panel holds about 83,000 compounds, 20% with a hit somewhere; the sample as a whole holds those more often.
What growth was measured for each of the following?
Write down the numeric answer in % and omit the unit.

Field growth (system: A498 renal) for entry CC1=NN(c2ccc(S(=O)(=O)O)cc2Cl)C(=O)C1 = 102

Field growth (system: A498 renal) for entry O=C(O)/C(=C/c1ccc(O)cc1)c1ccccc1 = 93.2

Field growth (system: A498 renal) for entry CC(C)c1cc(C(=O)O)c(O)c(C(C)C)c1.CC(C)c1cc(C(=O)O)c(O)c(C(C)C)c1.[Mn] = 126

Field growth (system: A498 renal) for entry CCC(CC)C(=O)OC(C)COc1ccc(C(C)(C)C)cc1 (configuration not stated) = 87.8

Field growth (system: A498 renal) for entry COc1cccc(-c2nn(-c3ccccc3)cc2-c2ccnc(NCCNS(=O)(=O)c3ccc(C(F)(F)F)cc3)c2)c1 = 4.35

Field growth (system: A498 renal) for entry CC(C)(C)CC(C)(C)c1ccc(OCCOCC[N+](C)(C)CC(=O)[O-])cc1 = 104

Field growth (system: A498 renal) for entry COc1ccc2c3c(c4ccccc4cc13)C(=O)N(CCN(C)CCN)C2=O = -48.8

----------
# Test system: SK-MEL-5 melanoma
# PROCEDURE SUMMARY: NCI-60 one-dose screen, 48 h (100 = growth as untreated, 0 = no growth, -100 = all killed)
# REPORTED CONDITIONS: 10 µM unless noted
About 83,000 compounds went through this panel and 20% of them were active in at least one assay; those are over-represented in the sample as a whole. The source made the active and inactive calls. Rule for the calls: active = growth percent below 10; inactive = the rest.
PROPERTY NAME: growth

Recorded growth (compound COc1ccc(C2=NN(c3nc(-c4ccc(OC)cc4)c(C#N)c(=O)n3C)C(=O)CC2)cc1 ): 96.3% (inactive)

Recorded growth (compound Cc1cc(C)c(NC(=O)c2sc3nc4c(cc3c2N)CCCC4)c(C)c1 ): 50.1% (inactive)

Recorded growth (compound Cn1cccc1/C=C1/SC(=S)N(CCc2ccc(O)cc2)C1=O ): 44.2% (inactive)

Recorded growth (compound COC(=O)[C@]12CC[C@@H](C)[C@H](C)[C@@H]1C1=CC(=O)[C@@H]3[C@@]4(C)C[C@@H](O)[C@H](O)[C@@]5(C)COC(=C45)C[C@@]3(C)[C@]1(C)CC2 ): 41.3% (inactive)

Recorded growth (compound Nc1c2c(nc3ccc(Br)cc13)CC(c1ccccc1)CC2=O (centres undefined) ): 20.1% (inactive)

Recorded growth (compound N=C(N)c1ccc(S(N)(=O)=O)cc1 ): 95.3% (inactive)

Recorded growth (compound COc1ccc2c(c1)C/C(=C\c1cc(-c3cc(OC)c(OC)c(OC)c3)n[nH]1)C2=O ): 75.5% (inactive)

Recorded growth (compound CCCCCC1CCCCN1C(=O)OCC (centres undefined) ): 116% (inactive)

Recorded growth (compound Cc1ccc(N(CC(=O)Nc2ccc(S(=O)(=O)N3CCC(N4CCCC4)CC3)cc2)S(=O)(=O)c2ccc(Cl)cc2)cc1 ): -97.6% (active)

----------
What growth was measured for each of the following?
# System: HOP-62 NSCLC
# PROCEDURE SUMMARY: NCI-60 one-dose screen, 48 h (100 = growth as untreated, 0 = no growth, -100 = all killed)
# REPORTED CONDITIONS: 10 µM unless noted
About 83,000 compounds went through this panel and 20% of them were active in at least one assay; those are over-represented in the sample as a whole.
Write down the numeric answer in % and omit the unit.

Recorded growth (compound Cc1ccc(NC2CC(=O)N(c3c(C)cc(C)cc3C)C2=O)c(C)c1 (stereo not drawn) ): 110

Recorded growth (compound CCSc1sc(-c2ccc(C)cc2)nc1[P+](c1ccccc1)(c1ccccc1)c1ccccc1 ): -10.3

Recorded growth (compound CN(C)c1ccc(C(=O)c2ccc(N(C)C)c(N)c2)cc1N ): 53

Recorded growth (compound COc1ccc2nc(-c3c(-c4ccccc4)nc4ncccn34)[nH]c2c1 ): 108

Recorded growth (compound CCN1CCN(C(=O)[C@]23CCC(C)(C)C[C@@H]2C2=CC[C@@H]4[C@@]5(C)C/C(=C/c6ccncc6)C(=O)C(C)(C)[C@@H]5CC[C@@]4(C)[C@]2(C)CC3)CC1 ): -66.9

Recorded growth (compound Cn1c(=O)c2c(ncn2CC(=O)Nc2ccc(S(N)(=O)=O)cc2)n(C)c1=O ): 94.8

Recorded growth (compound C[C@]12CC[C@@H]3c4ccc(O)cc4CC[C@H]3[C@@H]1C[C@H](O)[C@@H]2O ): 94.2

Recorded growth (compound CC(C)(C)c1[nH]nc2c1C(c1cc3ccccc3[nH]c1=O)Nc1cc(C(=O)OCc3ccccc3)ccc1N2 (stereo not drawn) ): 65.1
